assay: qHTS for Inhibitors of human tyrosyl-DNA phosphodiesterase 1 (TDP1): qHTS in cells in absence of CPT; details: DT40 Tdp1-/- hTDP1 cells, no CPT, ATP luminescence, 48 h; note: nearly all actives have a fitted effect of over 55% in size
The whole screen tested about 420,000 compounds, of which about 64,000 (15%) were called active. Not shown: some 27% with an inconclusive outcome. Calls come from the whole dose curve; as a rule, active = well fitted inhibition curve with a large enough effect; inconclusive = small, poorly fitted or top-dose-only effect; inactive = flat fitted curve, though single readings scatter. These entries were drawn from the full list.
Outcome codes: active, inactive

>  <Molecule>
Cc1ccc(Cl)cc1N1CCN(C(=O)c2cnc3c(-c4ccc(F)cc4)c(C)nn3c2C)CC1

>  <Assigned Category>
inactive

$$$$
>  <Molecule>
COc1cccc(CNC(=O)C2CC(=O)N(C3CCCCCCC3)C2)c1 (stereo not given)

>  <Assigned Category>
inactive

$$$$
>  <Molecule>
COc1ccc(S(=O)(=O)N2CCC(C(=O)NCCC(=O)NCc3cccc(OC)c3)CC2)cc1

>  <Assigned Category>
inactive

$$$$
>  <Molecule>
COc1ccc(NC(=O)N2CCCC2C(=O)NCc2ccccc2Cl)cc1 (stereo not given)

>  <Assigned Category>
inactive

$$$$
>  <Molecule>
COc1ccccc1CNC(=O)CNC(=O)c1cn(-c2ccccc2OC)c(=O)c2ccccc12

>  <Assigned Category>
inactive

$$$$
>  <Molecule>
COc1cccc(CNC(=O)CCC(=O)N2CC3CCCN3c3ccccc32)c1 (stereo not given)

>  <Assigned Category>
active

$$$$
>  <Molecule>
COc1ccccc1CNC(=O)c1ccc(NC(=O)N2CC(C)Sc3ccccc32)cc1 (stereo not given)

>  <Assigned Category>
active

$$$$
>  <Molecule>
O=C1C2C3C=CC(C3)C2C(=O)N1c1ccc(S(=O)(=O)Nc2nccs2)cc1 (stereo not given)

>  <Assigned Category>
inactive

$$$$
>  <Molecule>
O=C(NCc1ccccc1Cl)C1CCCO1 (stereo not given)

>  <Assigned Category>
inactive

$$$$
>  <Molecule>
CCOc1ccccc1CNC(=O)c1ccc2c(c1)nc1n2CCC(C)C1 (stereo not given)

>  <Assigned Category>
inactive

$$$$
